Where do these numbers come from? They come from ChEMBL document CHEMBL1143052.

# Test system: Staphylococcus aureus
# Method: Antibacterial activity against Staphylococcus aureus MTCC 2901 after 24 hrs
Quantity: -log(1/MIC)

May I ask what -log(1/MIC) has been recorded for "O=C(Nc1ccccc1)c1ccccc1OCc1ccccc1" ?
1.39

Look at this compound and give its reported -log(1/MIC). "O=C(/C=C/c1ccccc1)Nc1ccc(O)cc1"
1.28

Which -log(1/MIC) is listed for "O=C(Nc1ccccc1O)c1cc([N+](=O)[O-])cc([N+](=O)[O-])c1" ?
1.38

Quick one: -log(1/MIC) for "Cc1ccc(C(=O)Nc2ccc(O)cc2)cc1" ?
1.26

Query (compound): "O=C(Nc1ccc(O)cc1)c1cc([N+](=O)[O-])cc([N+](=O)[O-])c1" ; field requested: -log(1/MIC)
1.38

# input compound: "O=C(Nc1ccccc1O)c1ccccc1" ; wanted: its -log(1/MIC)
1.11
